Cited source: patent US20240208965A1

Molecular target: Human MAT2A (Homo sapiens)
Construct: Human MAT2A: Cepter, amino acids 1-395 Clone ID 334, lot 00023-148; purchased Cepter clone ID 334, lot 00023-148
Experiment: Phosphate Sensor Fluorescence Assay (Biologic Example B)
Format: biochemical
Conditions: MAT2A inhibition, Biological Example B procedure (Compounds 1.029-1.070); 5.8 nM MAT2A, 500 uM L-methionine, 500 uM ATP
pIC50: −log10 of the molar value.
measurement-label: pIC50

Consider the compound CNc1nc(=O)n(Cc2cncs2)c2cc(C(F)(F)F)ccc12 and give its measured pIC50. 6.00 to 6.30

Consider the compound CC[C@@H](c1cnc[nH]1)n1c(=O)nc(N(C)C)c2ccc(C(F)(F)F)cc21 (single isomer, unassigned) and give its measured pIC50. 6.30 to 6.70

Consider the compound CN(C)c1nc(=O)n(Cc2cnc[nH]2)c2cc(C(F)(F)F)ccc12 and give its measured pIC50. 6.70 to 8.00

Consider the compound CN(C)c1nc(=O)n(Cc2nc[nH]n2)c2cc(C(F)(F)F)ccc12 and give its measured pIC50. 6.70 to 8.00

Consider the compound CC(C)N(C)c1nc(=O)n([C@@H](C)c2cnc[nH]2)c2cc(C(F)(F)F)ccc12 (single isomer, unassigned) and give its measured pIC50. 6.70 to 8.00

Consider the compound CC[C@H](c1cnc[nH]1)n1c(=O)nc(N(C)C)c2ccc(C(F)(F)F)cc21 (single isomer, unassigned) and give its measured pIC50. 6.70 to 8.00

Consider the compound CN(C)c1nc(=O)n(Cc2cn(C)cn2)c2cc(C(F)(F)F)ccc12 and give its measured pIC50. 5.00 to 6.00

Consider the compound CN(C)c1nc(=O)n(CC2CNC(=O)C2)c2cc(C(F)(F)F)ccc12 (centres unmarked) and give its measured pIC50. 6.00 to 6.30

----------
Each entry below carries its recorded pIC50.
Target: Human MAT2A (Homo sapiens)
Construct: Human MAT2A: Cepter, amino acids 1-395 Clone ID 334, lot 00023-148; purchased Cepter clone ID 334, lot 00023-148
Test: Phosphate Sensor Fluorescence Assay (Biologic Example B)
Assay type: biochemical
Conditions: MAT2A inhibition, Biological Example B procedure (Compounds 1.029-1.070); 5.8 nM MAT2A, 500 uM L-methionine, 500 uM ATP
pIC50: −log10 of the molar value.

The examples below pair each entry with its known result.
compound	observed-value
CC(C)N(C)c1nc(=O)n([C@H](C)c2cnc[nH]2)c2cc(C(F)(F)F)ccc12 (single isomer, unassigned) [1.038]	6.70 to 8.00
CC(c1cc[nH]n1)n1c(=O)nc(N(C)C)c2ccc(Cl)cc21 (racemic) [1.062]	> 8.00
CCN(C)c1nc(=O)n([C@H](C)c2cnc[nH]2)c2cc(C(F)(F)F)ccc12 (single isomer, unassigned) [1.036]	6.70 to 8.00
CNc1nc(=O)n(Cc2cocn2)c2cc(C(F)(F)F)ccc12 [1.066]	6.70 to 8.00
CN(C)c1nc(=O)n(Cc2ccccn2)c2nc(C(F)(F)F)ccc12 [1.052]	6.70 to 8.00
CNc1nc(=O)n(Cc2cnco2)c2cc(C(F)(F)F)ccc12 [1.065]	6.00 to 6.30

Consider the compound CN(C)c1nc(=O)n(Cc2ccn[nH]2)c2cc(Cl)ccc12 [1.056] and give its measured pIC50. 6.70 to 8.00

Consider the compound C[C@@H](c1cnc[nH]1)n1c(=O)nc(N2CCC2)c2ccc(Br)cc21 (single isomer, unassigned) [1.040] and give its measured pIC50. 6.70 to 8.00

----------
Each entry below carries its recorded pIC50.
Biological target: Human MAT2A (Homo sapiens, UniProt P31153)
Construct: Human MAT2A: Cepter, amino acids 1-395 Clone ID 334, lot 00023-148; purchased Cepter clone ID 334, lot 00023-148
Sequence (P31153 whole entry, the tested form may be a part): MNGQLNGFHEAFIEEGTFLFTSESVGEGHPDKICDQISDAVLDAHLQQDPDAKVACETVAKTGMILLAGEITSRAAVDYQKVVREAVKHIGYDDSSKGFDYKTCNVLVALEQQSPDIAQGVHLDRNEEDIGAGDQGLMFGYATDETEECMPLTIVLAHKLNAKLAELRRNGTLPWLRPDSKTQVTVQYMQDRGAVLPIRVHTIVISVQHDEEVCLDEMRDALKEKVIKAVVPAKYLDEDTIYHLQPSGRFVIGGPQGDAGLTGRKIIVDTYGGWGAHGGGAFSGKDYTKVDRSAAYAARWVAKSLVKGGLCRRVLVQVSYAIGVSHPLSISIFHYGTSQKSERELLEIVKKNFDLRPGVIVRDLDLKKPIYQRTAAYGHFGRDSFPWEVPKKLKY
Experiment: Phosphate Sensor Fluorescence Assay (Biologic Example B)
Type: biochemical
Settings: MAT2A inhibition, Biological Example B procedure (Compounds 1.029-1.070); 5.8 nM MAT2A, 500 uM L-methionine, 500 uM ATP
pIC50: −log10 of the molar value.

The examples below pair each entry with its known result.
compound	pIC50
C[C@H](c1cc[nH]n1)n1c(=O)nc(N(C)C)c2ccc(Cl)cc21 (single isomer, unassigned) [1.059]	> 8.00
C[C@@H](c1nc[nH]n1)n1c(=O)nc(N(C)C)c2ccc(Cl)cc21 (single isomer, unassigned) [1.061]	6.00 to 6.30

Consider the compound C[C@H](c1cnc[nH]1)n1c(=O)nc(N(C)C)c2ccc(Cl)cc21 (single isomer, unassigned) [1.047] and give its measured pIC50. > 8.00

Consider the compound CN(C)c1nc(=O)n(C(c2cnc[nH]2)C2CC2)c2cc(C(F)(F)F)ccc12 (stereo not shown) [1.045] and give its measured pIC50. 6.30 to 6.70

Consider the compound CN(C)c1nc(=O)n([C@@H](c2c[nH]cn2)C(F)F)c2nc(C(F)(F)F)ccc12 (single isomer, unassigned) [1.063] and give its measured pIC50. 5.00 to 6.00

----------
Molecular target: Human MAT2A (Homo sapiens)
Construct: Human MAT2A: Cepter, amino acids 1-395 Clone ID 334, lot 00023-148; purchased Cepter clone ID 334, lot 00023-148
Experiment: Phosphate Sensor Fluorescence Assay (Biologic Example B)
Format: biochemical
Details: MAT2A inhibition, Biological Example B procedure (Compounds 1.029-1.070); 5.8 nM MAT2A, 500 uM L-methionine, 500 uM ATP
pIC50: −log10 of the molar value.
Each entry below carries its recorded pIC50.

molecule	pIC50
CN(C)c1nc(=O)n(Cc2cncn2C)c2cc(C(F)(F)F)ccc12	6.30 to 6.70
Cc1nc[nH]c1Cn1c(=O)nc(N(C)C)c2ccc(C(F)(F)F)cc21	5.00 to 6.00

Consider the molecule CC(c1c[nH]cn1)n1c(=O)nc(N2CCC2)c2ccc(Br)cc21 (stereo not drawn) and give its measured pIC50. 6.70 to 8.00

Consider the molecule CCC(c1cnc[nH]1)n1c(=O)nc(N(C)C)c2ccc(C(F)(F)F)cc21 (stereo not drawn) and give its measured pIC50. 6.30 to 6.70

Consider the molecule CC(c1c[nH]cn1)n1c(=O)nc(N(C)C)c2ccc(Br)cc21 (stereo not drawn) and give its measured pIC50. 6.70 to 8.00

Consider the molecule CN(C)c1nc(=O)n([C@H](c2c[nH]cn2)C(F)F)c2nc(C(F)(F)F)ccc12 (single isomer, unassigned) and give its measured pIC50. 6.30 to 6.70

Consider the molecule CN(C)c1nc(=O)n(Cc2cnc[nH]2)c2cc(Cl)ccc12 and give its measured pIC50. 6.30 to 6.70

Consider the molecule CNc1nc(=O)n(Cc2cscn2)c2cc(C(F)(F)F)ccc12 and give its measured pIC50. 5.00 to 6.00

Consider the molecule C[C@H](c1nc[nH]n1)n1c(=O)nc(N(C)C)c2ccc(Cl)cc21 (single isomer, unassigned) and give its measured pIC50. 6.70 to 8.00

----------
Biological target: Human MAT2A (Homo sapiens)
Construct: Human MAT2A: Cepter, amino acids 1-395 Clone ID 334, lot 00023-148; purchased Cepter clone ID 334, lot 00023-148
Assay: Phosphate Sensor Fluorescence Assay (Biologic Example A)
Format: biochemical
Details: MAT2A inhibition, Biological Example A procedure (Compounds 1.001-1.028); 500 uM L-methionine, 500 uM ATP
Each entry below carries its recorded IC50.

The examples below pair each entry with its known result.
compound	assay-system	observed-value
CNc1nc(=O)n([C@H](C)c2cscn2)c2cc(C(F)(F)F)ccc12 [1.002]	Human MAT2A (Homo sapiens)	500 to 1000 nM
C[C@H](c1c[nH]cn1)n1c(=O)nc(N2CCC2)c2ccc(C(F)(F)F)cc21 (single isomer, unassigned) [1.027]	Human MAT2A (Homo sapiens)	200 to 500 nM
CNc1nc(=O)n(Cc2c[nH]nn2)c2cc(C(F)(F)F)ccc12 [1.005]	Human MAT2A (Homo sapiens)	1000 to 10000 nM
CNc1nc(=O)n([C@@H](C)c2c[nH]cn2)c2cc(C(F)(F)F)ccc12 (single isomer, unassigned) [1.009]	Human MAT2A (Homo sapiens)	10 to 200 nM
CO[C@@H]1CCN(c2nc(=O)n([C@@H](C)c3c[nH]cn3)c3cc(C(F)(F)F)ccc23)C1 (single isomer, unassigned) [1.026]	Human MAT2A (Homo sapiens)	200 to 500 nM
CO[C@H]1CCN(c2nc(=O)n([C@@H](C)c3c[nH]cn3)c3cc(C(F)(F)F)ccc23)C1 (single isomer, unassigned) [1.022]	Human MAT2A (Homo sapiens)	1000 to 10000 nM
CC(c1c[nH]cn1)n1c(=O)nc(N2CC[C@H](CO)C2)c2ccc(C(F)(F)F)cc21 (stereo partly shown) [1.011]	Human MAT2A (Homo sapiens)	10 to 200 nM
CO[C@@H]1CCN(c2nc(=O)n([C@H](C)c3c[nH]cn3)c3cc(C(F)(F)F)ccc23)C1 (single isomer, unassigned) [1.025]	Human MAT2A (Homo sapiens)	10 to 200 nM
CNc1nc(=O)n(C(C)c2c[nH]cn2)c2cc(C(F)(F)F)ccc12 (racemic) [1.007]	Human MAT2A (Homo sapiens)	10 to 200 nM
CC(c1c[nH]cn1)n1c(=O)nc(N)c2ccc(C(F)(F)F)cc21 (stereo not shown) [1.018]	Human MAT2A (Homo sapiens)	10 to 200 nM

# input for lookup
Consider the compound CNc1nc(=O)n(Cc2c[nH]cn2)c2cc(C(F)(F)F)ccc12 [1.003] and give its measured IC50. 10 to 200 nM
